Tested on: mouse liver microsomes + NADPH, LC-MS/MS % remaining
Assay: Inhibitors of N370S glucocerebrosidase as a Potential Chaperone Treatment of Gaucher Disease: Metabolic Stability Profile with NADPH
Settings: at 5 µM; higher = more stable (active)
value.kind: percent remaining (%)
Give your result in % as a bare value.

Challenge: Reported percent remaining for mouse liver microsomes + NADPH, LC-MS/MS % remaining, given `S=C(NCCCc1cnc[nH]1)NCCCN(Cc1ccc(Cl)c(Cl)c1)c1ccc(Br)cn1` ?
Response given: 58
